Target: von Willebrand factor (VWF) (Homo sapiens, UniProt P04275 P04275:764-2813)
Assay: filter; Bmax 83%; 2 mM CaCl2, 37 C
Conditions: tags: factor VIII free human purified VWF, Haematologic Technologies Inc; label: 5'-32P

- binder: "ACGAACUGCCCUCGAUCGACGCACAGACGUAAAAA (ssRNA, 2'-F C9,C10,C11,C20,G21,C22; rest 2'-OMe; 3' idT) [T83 vrt7]"
  unit_of_measure: "nM"
  Kd: 265
- binder: "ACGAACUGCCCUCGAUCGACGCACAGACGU (ssRNA, 2'-F U7,C9,C10,C11,U12,C20,C22,U30; ribo A19,G21; rest 2'-OMe; 3' idT) [T59 vrt24]"
  unit_of_measure: "nM"
  Kd: 2.4

# credit: patent US20190218553
